The reader will find reported Bliss excess values listed item by item below.
Test system: NCI-H2591 (Mesothelioma);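 further: after 72 h of two-drug dosing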
Test: Bliss excess, mean over the matrix (fraction); higher = more synergy
Simply state the number, no unit and no words.

| compound | subject.of.test | Bliss excess |
| --- | --- | --- |
| CN(CCO)CC[C@H](CSc1ccccc1)Nc1ccc(S(=O)(=O)NC(=O)c2ccc(N3CCC([C@@H](O)c4ccccc4-c4ccc(Cl)cc4)CC3)cc2)cc1S(=O)(=O)C(F)(F)F [AZD4320] + C[C@@H](Nc1cc(F)cc(F)c1)c1cc(C(=O)N(C)C)cc2c(=O)cc(N3CCOCC3)oc12 [AZD8186] (first compound max 1 µM, 7x7, partner max 3 µM) | NCI-H2591 (Mesothelioma) | 0.0135 |

Next, consider the following compound.
Query block: Report Bliss excess for C[C@@H](c1ccc2nccn2c1)n1nnc2ncc(-c3cnn(C)c3)nc21 [Savolitinib] + CC1(C)CCC(CN2CCN(c3ccc(C(=O)NS(=O)(=O)c4ccc(NCC5CCOCC5)c([N+](=O)[O-])c4)c(Oc4cnc5[nH]ccc5c4)c3)CC2)=C(c2ccc(Cl)cc2)C1 [Venetoclax] (first compound max 1 µM, 7x7, partner max 1 µM)
Result block: -0.0802
